Consider the following compounds and their measured activity at 30 µM readings.
- Tested on: lysosomal labelling (LysoTracker Red), U2OS cells
- experimentalDetails: Counterscreen: LysoTracker Red
- Format: cell-based, human
- details: Homo sapiens, read-out: Counterscreen (human cells) LTR signal (% control)
Counter-ions that a name gives are not always drawn.

- compound: "COc1cc(C(=O)OCCCN2CCCN(CCCOC(=O)c3cc(OC)c(OC)c(OC)c3)CC2)cc(OC)c1OC [Dilazep hydrochloride, dilazep hydrochloride]"
  unitDescriptor: "%"
  activity at 30 µM: 69.6
- compound: "CN1CCC[C@@H]1CCO[C@](C)(c1ccccc1)c1ccc(Cl)cc1 [Clemastine fumarate, clemastine fumarate]"
  unitDescriptor: "%"
  activity at 30 µM: 70.9
- compound: "OCc1cc(C(O)CNCCCCCCOCCCCc2ccccc2)ccc1O (stereo not drawn) [Salmeterol xinafolate, salmeterol xinafoate]"
  unitDescriptor: "%"
  activity at 30 µM: 97.3
- compound: "CN1CCN(CCCN2c3ccccc3Sc3ccc(Cl)cc32)CC1 [Prochlorperazine dimaleate, prochlorperazine dimaleate salt]"
  unitDescriptor: "%"
  activity at 30 µM: 24.3
- compound: "CN1CCN(CCCN2c3ccccc3Sc3ccc(C(F)(F)F)cc32)CC1 [Trifluoperazine dihydrochloride, trifluoperazine dihydrochloride]"
  unitDescriptor: "%"
  activity at 30 µM: 15.2
- compound: "COc1ccc(CCCOC(Cn2ccnc2)c2ccc(OC)cc2)cc1 (stereo not drawn) [SKF 96,365, SKF 96365 hydrochloride]"
  unitDescriptor: "%"
  activity at 30 µM: 98.5
